Ref: PubChem BioAssay (NCI)

- experiment: NCI Yeast Anticancer Drug Screen. Data for the mlh1 rad18 strain (AID 175)
- stated-conditions: S. cerevisiae mlh1 rad18 strain growth inhibition; at 50.0 µM (retest, dose inferred, filed as 5.0); stronger effect = higher value
The panel holds about 79,000 compounds, 15% with a hit somewhere; the sample as a whole holds those more often.
Rule: growth inhibition of 60% or more gives Met; anything lower gives Not met.

{"compound": "O=c1c2cc3ccccc3cc2c(=O)n2n1CC=CC2", "group-label": "Not met"}

Qu. Decide: growth inhibition of `Cc1ccc(NC(=O)/C(CC(=O)c2sc(Nc3ccc(Cl)c(Cl)c3)nc2C)=N\Nc2ccc([N+](=O)[O-])cc2[N+](=O)[O-])c(C)c1` >= 60%?
Ans. Met

Qu. Decide: growth inhibition of `CC1=C(C(=O)Nc2ccccc2Cl)C(c2cccc([N+](=O)[O-])c2)C(C(=O)Nc2ccccc2Cl)=C(C)N1` >= 60%?
Ans. Met

----------
- experiment: NCI Yeast Anticancer Drug Screen. Data for the mlh1 rad18 strain (AID 175)
- stated-conditions: S. cerevisiae mlh1 rad18 strain growth inhibition; at 50.0 µM (retest, dose inferred, filed as 5.0); stronger effect = higher value
- Protocol: Growth inhibition of yeast strains with defined genetic alterations is measured as a screen for potential anti-cancer activity. Selected strains with alterations in DNA damage repair or cell cycle control were exposed to compounds and growth inhibition was measured relative to vehicle treated controls. The strain used in this assay is mlh1 rad18
This is part of a sample that, as a whole, favours compounds with a hit. Of some 79,000 tested, about 15% had one in any assay.
quantity-measured: growth inhibition (%)
Numbers only, in %.

Reference set, count: 5
{"compound": "O=C(CCCl)Nc1cc2ccccc2oc1=O", "growth inhibition (%)": 19}
{"compound": "CCCNCCCC(C)Nc1cc(OC)cc2c(C)ccnc12 (stereo unspecified)", "growth inhibition (%)": 86}
{"compound": "Cc1cc(C)c(O)c(Cc2cc(Cl)cc(Cc3cc(C)cc(C)c3O)c2O)c1", "growth inhibition (%)": 92}
{"compound": "C/C(=N\\NC(N)=S)C(CN1CCCCC1)C(C1=C(O)c2ccccc2OC1)c1ccccc1 (stereo unspecified)", "growth inhibition (%)": 55}
{"compound": "Cc1cc(Cl)c(C(C)C)cc1O", "growth inhibition (%)": 58}

growth inhibition reading for `FC(F)(F)c1[nH]nc(-c2ccc(Cl)cc2)c1N=NN1CCOCC1` : 97

----------
- experiment: NCI Yeast Anticancer Drug Screen. Data for the rad50 strain (AID 155);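 note: 0% = growth of vehicle-only cultures of the same strain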
- stated-conditions: S. cerevisiae rad50 strain growth inhibition; at 5.0 µM (retest, dose inferred, filed as 0.5)
The panel holds about 79,000 compounds, 15% with a hit somewhere; the sample as a whole holds those more often. Active and inactive are the calls of the source. Cut-off read from the data, not from the text of the source: active = growth inhibition above about 70%; inactive = the rest.
Answer with one of the outcomes active, inactive

{"compound": "COc1nc2nc(SC(CC(=O)O)C(=O)c3ccc(Cl)cc3)[nH]c2c2ccccc12 (stereo not given)", "group-label": "inactive"}
{"compound": "CC(=O)CCCOC(C)=O", "group-label": "inactive"}
{"compound": "COc1ccc2cc(C(=O)CCCC(C)C(=O)O)ccc2c1 (stereo not given)", "group-label": "inactive"}

Qu. Dear all, I need the recorded test outcome for `O=C(C[n+]1ccccc1)c1ccc2ccc3ccc(Cl)cc3c2c1` , thank you.
Ans. inactive

Qu. For this compound, state the assay outcome: `O=C(O)CCC/C(=N\Nc1ccccc1)C(=O)O`
Ans. inactive

Qu. Entry `O=C1/C(=C/N2CCN(c3ccccc3)CC2)Cc2c(Cl)cccc21` : call = ?
Ans. inactive

----------
Could you please report measured growth inhibition for the items listed next?
- experiment: NCI Yeast Anticancer Drug Screen. Data for the cln2 rad14 strain (AID 165);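 note: 0% = growth equal to vehicle treated cultures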
- stated-conditions: S. cerevisiae cln2 rad14 strain, at 50.0 µM, stronger effect = higher value
Compounds without any hit were thinned out: in the full panel of roughly 79,000, 15% have a hit.
Answers are plain numbers, in %.

{"compound": "O=[N+]([O-])c1cc(I)cc(/C=N/NS(=O)(=O)c2ccc(F)cc2)c1O", "growth inhibition / %": 77.8}
{"compound": "Cc1scnc1C(C#N)(c1ccccc1)c1ccccc1", "growth inhibition / %": 98.5}
{"compound": "CC(C)(C)c1ccc(-n2c3nc(=O)n(-c4ccccc4C(F)(F)F)c(=O)c-3cc3ccccc32)cc1", "growth inhibition / %": 60.5}
{"compound": "O=C1/C(=C/c2ccccc2)CCC/C1=C\\c1ccc(O)c(CN2CCCCC2)c1", "growth inhibition / %": 74.9}
{"compound": "CCCC1(C)C(C#N)(C#N)C1(C#N)C#N", "growth inhibition / %": 99.1}
{"compound": "COc1cccc2c1C(=O)c1c(O)c3c(c(O)c1C2=O)CC(O)(C(=O)CO)CC3OC1CC(N)C(O)C(C)O1.[Cl][Pt+2][Cl].[NH2-].[NH2-] (stereo not given)", "growth inhibition / %": 43.5}
{"compound": "COc1ccc(C(C)c2cc3c(cc2O)OCO3)cc1 (stereo not given)", "growth inhibition / %": 97.1}
{"compound": "O=S(=O)(Sc1ccccc1)c1ccccc1", "growth inhibition / %": 97}
{"compound": "Cc1ccc(Sc2ccc3ccccc3n2)cc1", "growth inhibition / %": 50.2}

The compound COC(=O)C1=C(C)NC(C)=C([N+](=O)[O-])C1c1cccc(N=O)c1 (stereo not given) showed growth inhibition equal to 57.2

----------
- experiment: NCI Yeast Anticancer Drug Screen. Data for the mlh1 rad18 strain (AID 175)
- stated-conditions: S. cerevisiae mlh1 rad18 strain growth inhibition; at 50.0 µM (retest, dose inferred, filed as 5.0); stronger effect = higher value
Compounds without any hit were thinned out: in the full panel of roughly 79,000, 15% have a hit.
quantity-measured: growth inhibition (%)
One number for each entry, in %.

Please review the following examples before continuing.
{"molecule": "O=C1C(=O)C(Cc2ccccc2)(c2ccccc2)C(=O)N1c1ccccc1 (stereo unspecified)", "growth inhibition / %": 62}
{"molecule": "Cc1c(C[n+]2cc3ccccc3cc2/C=N/O)ccc2ccccc12", "growth inhibition / %": 37}
{"molecule": "O=C(O)C(SC1=NNC2(C(=O)N1)c1ccccc1-c1ccccc12)SC1=NNC2(C(=O)N1)c1ccccc1-c1ccccc12", "growth inhibition / %": 95}
{"molecule": "C/C(=N\\Nc1ccccn1)c1ccccn1", "growth inhibition / %": 98}
{"molecule": "O=C(COc1ccc(Cl)c(Cl)c1)Nc1ccc[n+](Cc2ccc(Cl)c(Cl)c2)c1", "growth inhibition / %": 99}

Value sought for every listed molecule: growth inhibition.
1. O=C1c2ccccc2CC(Br)c2ccccc21 (stereo unspecified)
2. O=[N+]([O-])c1cnc(Sc2cncc[n+]2[O-])s1
3. C/C(CCC(=O)O)=N/Nc1ccc(C(=O)O)cc1

Ans.
1. 98
2. 99
3. 89

Report growth inhibition for every entry below.
1. N/C(=N\N=C\c1cc(I)cc(I)c1O)NO
2. Cc1cc(Cl)ccc1Nc1sc(C(=O)c2cc3cc(Cl)ccc3o2)c(N)c1C#N
3. CC1(c2ccc3ccccc3c2)C(C#N)(C#N)C1(C#N)C#N

Ans.
1. 99
2. 66
3. 93

----------
- experiment: NCI Yeast Anticancer Drug Screen. Data for the sgs1 mgt1 strain (AID 161);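 note: 0% = growth of cultures given vehicle only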
- stated-conditions: S. cerevisiae sgs1 mgt1 strain, at 5.0 µM (retest, dose inferred, filed as 0.5), stronger effect = higher value
Compounds without any hit were thinned out: in the full panel of roughly 79,000, 15% have a hit.
quantity-measured: growth inhibition (%)
Answers are plain numbers, in %.

{"compound": "CCCCCCCCCCCCCCSC(=N)N", "growth inhibition (%)": 100}

Your task in this section: give growth inhibition for each listed record.
1. CN(C)/C(N)=N\c1nc2ccc(Cl)cc2s1
2. Cc1cc(C=Nc2ccccc2)c(O)c2ncccc12
3. O=[N+]([O-])c1c(C=Nc2ccccc2)oc(-c2c(O)ccc3ccccc23)c1-c1c(O)ccc2ccccc12
4. COc1ccc2c(c1OC)C1=C(C2=O)c2cc3c(cc2CCN1)OCO3
5. Cn1c(=O)c2c(ncn2-c2ccncc2)n(C)c1=O
6. Cc1ccc2c(c1)SSc1ccc(C)cc1SS2
7. Cc1ccc(S(=O)(=O)N/N=C2/CCC3(O)CC2(C)CCC2[C@H]3CC2(C)C)cc1 (some centres not stated)

Ans.
[-17, 15, -7, 9, -3, 35, 1]

Hi, could you look up growth inhibition for each item in my list?
1. COC(=O)[C@H]1[C@@H](C(C)C)O[C@@H](C(C)C)O[C@H]1C(F)(F)F
2. COC1OC(CI)C(OC(c2ccccc2)(c2ccccc2)c2ccccc2)C(OC(c2ccccc2)(c2ccccc2)c2ccccc2)C1OC(c1ccccc1)(c1ccccc1)c1ccccc1 (configuration not stated)

Ans.
1: -14; 2: -8

Hey, can you go through the list below and give me growth inhibition for every item?
1. Cc1ccc(O)c(Cc2ccc(Cl)cc2)c1
2. COc1ccc(C(=O)C(c2ccc(OC)cc2)C2(O)C(=O)Nc3c(Cl)cc(Cl)cc32)cc1 (configuration not stated)
3. CC(C)(CN1CCCCC1)C(/C=C/c1ccc(Cl)c(Cl)c1)=N\NC(=O)N/N=C(/C=C/c1ccc(Cl)c(Cl)c1)C(C)(C)CN1CCCCC1

Ans.
1. -56
2. 8
3. 41
